Tested on: B16-F10 murine melanoma cell line
Experiment: Cytotoxicity in B16-F10 cells (MTT)
Assay type: cell-based
Details: 250 µM, 48 h
MEASURED ATTRIBUTE: Cytotoxicity study in B16F10 cells % viability (%)
Your answer should be a plain number; it is taken to be in %.

Param item: O=C(/C=C/c1ccccc1)NCCO ; param system: B16-F10 murine melanoma cell line; output Cytotoxicity study in B16F10 cells % viability: 80.9

GET /values?item= CCC(CO)NC(=O)/C=C/c1ccc(C)cc1 (stereo not drawn) &system= B16-F10 murine melanoma cell line returns Cytotoxicity study in B16F10 cells % viability: 103.4

Entry O=C(/C=C/c1ccc(Cl)cc1Cl)NCCCCO : Cytotoxicity study in B16F10 cells % viability on B16-F10 murine melanoma cell line = 37.4

With B16-F10 murine melanoma cell line as the test system, O=C(/C=C/c1ccc(Cl)cc1Cl)NCCCO showed Cytotoxicity study in B16F10 cells % viability of 38.3

B16-F10 murine melanoma cell line assay, compound O=C(/C=C/c1ccccc1)NCCCO , recorded Cytotoxicity study in B16F10 cells % viability = 63.3

O=C(/C=C/c1ccc(Cl)cc1)NCCCCO tested on B16-F10 murine melanoma cell line gave Cytotoxicity study in B16F10 cells % viability: 52.7

// returns Cytotoxicity study in B16F10 cells % viability for CCC(CO)NC(=O)/C=C/c1ccc(Cl)cc1 (stereo not drawn) with B16-F10 murine melanoma cell line; value = 85.4

B16-F10 murine melanoma cell line assay, compound CCC(CO)NC(=O)/C=C/c1ccc(Cl)cc1Cl (stereo not drawn) , recorded Cytotoxicity study in B16F10 cells % viability = 24.6

Summary: CC(CO)NC(=O)/C=C/c1ccc(Cl)cc1 (stereo not drawn) , B16-F10 murine melanoma cell line, Cytotoxicity study in B16F10 cells % viability = 75.7

Given the compound CC(C)C(CO)NC(=O)/C=C/c1ccc(Cl)cc1 (stereo not drawn) and test system B16-F10 murine melanoma cell line, the measured Cytotoxicity study in B16F10 cells % viability is 72.6

Entry O=C(/C=C/c1ccccc1)NCCCCO , tested on B16-F10 murine melanoma cell line, has a reported Cytotoxicity study in B16F10 cells % viability of 103.2

Simply: O=C(/C=C/c1ccc(Cl)cc1)NCCCCCO , B16-F10 murine melanoma cell line, Cytotoxicity study in B16F10 cells % viability = 89.7

The compound CCC(O)CNC(=O)/C=C/c1ccc(Cl)cc1 (stereo not drawn) , tested on B16-F10 murine melanoma cell line, showed Cytotoxicity study in B16F10 cells % viability of 84.4

Bench note, B16-F10 murine melanoma cell line: entry O=C(/C=C/c1ccc(Cl)cc1Cl)N1CCC(O)CC1 , its Cytotoxicity study in B16F10 cells % viability = 93.0

# Cytotoxicity study in B16F10 cells % viability measured on B16-F10 murine melanoma cell line for item CCC(O)CNC(=O)/C=C/c1ccc(Cl)cc1Cl (stereo not drawn) = 33.9

Reported B16-F10 murine melanoma cell line Cytotoxicity study in B16F10 cells % viability for item O=C(/C=C/c1ccc(Cl)cc1)NCCCCCCO was 28.3

Lab note: compound Cc1ccc(/C=C/C(=O)NCCCO)cc1 tested on B16-F10 murine melanoma cell line; recorded Cytotoxicity study in B16F10 cells % viability was 79.8

Case Cc1ccc(/C=C/C(=O)NC(C)CO)cc1 (stereo not drawn) , B16-F10 murine melanoma cell line, Cytotoxicity study in B16F10 cells % viability recorded as 97.5

Measured Cytotoxicity study in B16F10 cells % viability for this entry O=C(/C=C/c1ccc(Cl)cc1)N1CCC(O)CC1 on B16-F10 murine melanoma cell line: 96.6

Hey, B16-F10 murine melanoma cell line data for O=C(/C=C/c1ccccc1)NCCCCCO : Cytotoxicity study in B16F10 cells % viability came out at 95.6

// compound O=C(/C=C/c1ccc(Cl)cc1Cl)NCCCCCO , assay B16-F10 murine melanoma cell line, Cytotoxicity study in B16F10 cells % viability value: 88.5

Reported Cytotoxicity study in B16F10 cells % viability (B16-F10 murine melanoma cell line) for entry O=C(/C=C/c1ccccc1)NCCCCCCO is 86.9

Tested system B16-F10 murine melanoma cell line; Cytotoxicity study in B16F10 cells % viability recorded for O=C(/C=C/c1ccc(Cl)cc1)NCCO was 77.8

Value sought: Cytotoxicity study in B16F10 cells % viability, system B16-F10 murine melanoma cell line, item O=C(/C=C/c1ccc(Cl)cc1)NCCCO . Result: 83.9

Considering Cc1ccc(/C=C/C(=O)NCCCCO)cc1 , its Cytotoxicity study in B16F10 cells % viability with B16-F10 murine melanoma cell line was recorded as 41.2

Value sought: Cytotoxicity study in B16F10 cells % viability, system B16-F10 murine melanoma cell line, item Cc1ccc(/C=C/C(=O)NCCCCCO)cc1 . Result: 75.7

// Cytotoxicity study in B16F10 cells % viability (B16-F10 murine melanoma cell line) for CCC(O)CNC(=O)/C=C/c1ccc(C)cc1 (stereo not drawn) = 87.4
